assay: NCI Yeast Anticancer Drug Screen. Data for the mlh1 rad18 strain (AID 175); settings: S. cerevisiae mlh1 rad18 strain growth inhibition; at 50.0 µM; hits give high values
About 79,000 compounds went through this panel and 15% of them were active in at least one assay; those are over-represented in the sample as a whole.
Quantity measured: growth inhibition (%)
Numbers only, in %.

Some solved cases for reference:
Compound	growth inhibition, %
Cc1[nH]n(-c2ccccc2)c(=S)c1C(=O)c1ccccc1	0.45
C=CC[N+](CCO)(CCO)CCCCCCCCCCCCCCCCCC	97.8
N#CCCN(C(=O)COc1ccc(Cl)cc1Cl)C1CCCCC1	95
Clc1ccc(Nc2ncco2)cc1Cl	16.8
COC(=O)[C@]12CCC(C)[C@H](C)[C@H]1C1=CCC3[C@@]4(C)CC[C@H](OC(C)=O)C(C)(C)C4CC[C@@]3(C)C1(C)C(O)C2 (stereo partly specified)	21.9
O=C(NNCCO)C(O)C(O)C(O)C(O)CO (stereo unspecified)	13.2

I need growth inhibition for every entry listed below, if you could help.
1. S=C(Cc1cccnc1)N1CCOCC1
2. CCOC(=O)c1c[nH]c(=S)[nH]c1=O
3. O=[N+]([O-])c1ccc(-c2ccccc2CO)cc1

[45.5, -10.8, -26.6]

I need growth inhibition for every entry listed below, if you could help.
1. Cc1ccc(S(=O)(=O)OC2C(OC(=O)c3ccccc3)OCC(O)C2O)cc1 (stereo unspecified)
2. O=[N+]([O-])c1ccc(N/N=C(\Cc2ccccc2)c2ccccc2)c([N+](=O)[O-])c1
3. CC(C)NCC(O)COc1cccc2ccccc12 (stereo unspecified)

1: 3.35; 2: 2.3; 3: 11.1

* * *

assay: NCI Yeast Anticancer Drug Screen. Data for the mec2-1 strain (AID 157); settings: S. cerevisiae mec2-1 strain, at 50.0 µM, hits give high values
About 79,000 compounds went through this panel and 15% of them were active in at least one assay; those are over-represented in the sample as a whole.
Quantity measured: growth inhibition (%)
Answers are plain numbers, in %.

Some solved cases for reference:
Compound	growth inhibition (%)
CC1C/C(=C\c2ccccc2)C(=O)/C1=C/c1ccccc1 (stereo not given)	17.4
O=CNCC1(c2ccccc2)CCNCC1	-3.25
OC1C2CCC3C2CC(C(O)(c2ccccc2)c2ccccc2)C13 (stereo not given)	-23.6

I need growth inhibition for every entry listed below, if you could help.
1. CCC(=O)OC(OC(=O)CC)c1ccc2c(c1)OCO2
2. c1ccc(N=C(c2ccccc2)c2ccccc2)cc1

1: 0.7; 2: -6.65

* * *

Kindly state growth inhibition for each of the entries shown.
experiment: NCI Yeast Anticancer Drug Screen. Data for the mec2-1 strain (AID 157); settings: S. cerevisiae mec2-1 strain, at 50.0 µM, hits give high values
Compounds without any hit were thinned out: in the full panel of roughly 79,000, 15% have a hit.
Answers are plain numbers, in %.

I need growth inhibition for every entry listed below, if you could help.
1. c1ccc2c3c([nH]c2c1)CCCCCC3
2. O=C1C=CC2C=CC1C=C2
3. Cc1ccc(C2(C#N)CCCC2)cc1
4. COC(=O)C(=O)Cc1cccc(OC(C)=O)c1C(=O)OC
5. O=C(O)CC1(c2ccccc2)CCCCC1
6. Cn1c(=O)c2ncn(CC3CCCCC3)c2n(C)c1=O

[14.6, 14.8, -1, 6.4, 7.05, 11.6]

I need growth inhibition for every entry listed below, if you could help.
1. CCOC(=O)C(CCC(c1ccc(OC)cc1)c1ccc(OC)cc1)C(=O)OCC
2. COc1ccc(/C=C2\CCC(Cc3ccccc3)(CN(C)C)C2=O)cc1 (stereo not given)
3. CCOC(=O)/C=C1\NCCc2ccccc21
4. O=S(=O)(O)c1cccc2nsnc12
5. COc1cc2oc(-c3ccc(O)cc3)cc(=O)c2c(OC)c1OC
6. CCCCCCCC(=O)N1CCCC(C)C1 (stereo not given)
7. CCC(/C=C/c1ccccc1)=N\NC(=O)c1ccc(Cl)cc1

1. -8.15
2. -15.3
3. 1.45
4. -2.05
5. -5.95
6. -25.8
7. 5.5

I need growth inhibition for every entry listed below, if you could help.
1. Cc1cc(S(=O)(=O)Nc2nc(N)nc(N(C)C)n2)c(S)cc1Cl
2. O/N=C/C(=Nc1cccc2ccccc12)NO
3. CCCCCCCCCCCCCCCCOc1ccc(OC)cc1C(=O)NNC(=S)SC
4. O=C(O)c1ccccc1SC(Sc1ccccc1C(=O)O)c1ccc(Cl)cc1
5. CCCCC/C(=C\c1ccccc1)C1OCC(COC(C)=O)O1 (stereo not given)
6. COc1ccc(C2=NCCO2)cc1N
7. O=c1[nH]c2cc3ccccc3cc2c2ccccc12

1: -17.2; 2: -12.8; 3: -0.1; 4: -9.15; 5: -5.8; 6: 0.45; 7: 9.6

* * *

assay: NCI Yeast Anticancer Drug Screen. Data for the mlh1 rad18 strain (AID 175); conditions: S. cerevisiae mlh1 rad18 strain growth inhibition; at 50.0 µM; hits give high values
Compounds without any hit were thinned out: in the full panel of roughly 79,000, 15% have a hit.
Kindly state growth inhibition for each of the entries shown.
One number for each entry, in %.

Compound	growth inhibition / %
CCc1c(Cc2[nH]c(Cc3[nH]c(C=O)c(C)c3CC)c(CC)c2CC)[nH]c(C=O)c1C	-8.75
COC(=O)C(C)n1c(C)csc1=S (stereo not drawn)	-0.55

// Input: O=C(O)C(Oc1ccc(Cl)cc1Cl)C(Oc1ccc(Cl)cc1Cl)C(=O)O (stereo not drawn) . Output its growth inhibition only.
3.75

* * *

assay: NCI Yeast Anticancer Drug Screen. Data for the cln2 rad14 strain (AID 165);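 further: 0% = growth equal to vehicle treated cultures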; details: S. cerevisiae cln2 rad14 strain, at 50.0 µM
Compounds without any hit were thinned out: in the full panel of roughly 79,000, 15% have a hit. The source made the active and inactive calls. Rule as the data show it: active = growth inhibition above about 70%; inactive = the rest.
Please state which outcome applies, choosing from label 1 = active, label 0 = inactive

Given COc1ccc(N=Nc2c(C)c(C#N)c(=S)n(C3OC(COC(C)=O)C(OC(C)=O)C(OC(C)=O)C3OC(C)=O)c2-c2ccccc2)cc1 (configuration not stated) , state the outcome it received in this test.
label 0

Given COc1cc(C=O)c(-c2cc(OC)c(OC)cc2C=O)cc1OC , state the outcome it received in this test.
label 0

Given CC(C(=O)O)C1Nc2ccccc2NC1=O (configuration not stated) , state the outcome it received in this test.
label 0

Given C=C1C(C)C2C(Cc3ccccc3)NC(=O)C23OC(=O)/C=C\CC(=O)CCC(C)C/C=C/C3C1O (configuration not stated) , state the outcome it received in this test.
label 1

Given O=C(O)/C(=C/c1ccccc1)c1ccccc1 , state the outcome it received in this test.
label 0

Given COc1ccc(Oc2nc(=O)n3ccccc3n2)cc1 , state the outcome it received in this test.
label 0

Given CCC(=O)N(C)[C@@H]1Oc2ccc(O)cc2[C@]1(C)c1cc(O)ccc1O , state the outcome it received in this test.
label 0

Given O=C1OC2c3ccccc3C3CC(=O)C2C13 (configuration not stated) , state the outcome it received in this test.
label 0

Given c1ccc2c(c1)N=C(NNC1=Nc3ccccc3SC1)CS2 , state the outcome it received in this test.
label 0

Given COc1cc(=O)n(-c2ccccc2)nc1C#N , state the outcome it received in this test.
label 0

Given Cc1c(C2CCSc3ccccc3N2)sc2ccccc12 (configuration not stated) , state the outcome it received in this test.
label 0

Given CCOC(=O)N(C)C(=C(F)F)C(F)(F)F , state the outcome it received in this test.
label 0

* * *

test: NCI Yeast Anticancer Drug Screen. Data for the cln2 rad14 strain (AID 165);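 further: 0% = growth equal to vehicle treated cultures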; conditions: S. cerevisiae cln2 rad14 strain, at 50.0 µM, hits give high values
The panel holds about 79,000 compounds, 15% with a hit somewhere; the sample as a whole holds those more often.
Quantity measured: growth inhibition (%)
One number for each entry, in %.

Some solved cases for reference:
Compound	growth inhibition / %
CC(C)CCC(C)C1CCC2C3CC/C(=N/Nc4ccc([N+](=O)[O-])cc4[N+](=O)[O-])C(C)(CCC(=O)O)C3CCC12C (centres undefined)	-24.2
CC(=O)O[C@]12CCCCCC1C1(O)C(O)CCC[C@H]12 (some centres undefined)	17.6
Nc1ncnc2c1N=C(c1ccccc1)CC(c1ccccc1)N2 (centres undefined)	3.15
C=CCCCCCCCCC(=O)NCC1CCCCO1 (centres undefined)	-1.35
O=C1C2Cc3ccccc3CN2C(=O)N1CCN1CCCC1 (centres undefined)	4.3

I need growth inhibition for every entry listed below, if you could help.
1. NC(=O)C(Br)Cc1cccc(Cl)c1 (centres undefined)
2. O=C(OC1CCC2(CC1)N=NC1(CCC(OC(=O)c3ccccc3)CC1)S2)c1ccccc1 (centres undefined)
3. COc1cc(C)c(O)c(C)c1C
4. O=Cc1cccc(/C=N/Nc2nnc(N/N=C/c3cccc(C=O)c3)c3ccccc23)c1
5. COc1ccc(C2C(Cl)C(=O)N2NC(=O)c2ccccc2O)cc1OC (centres undefined)
6. Cc1ccc(CC(=S)N2CCOCC2)cc1
7. CCOC(=O)C1/C(=C\O)C(=O)c2cc(OC)c(OC)cc2C1c1ccc(OC)c(OC)c1 (centres undefined)

2.05
-7.6
-30.3
33.1
15.4
10.9
8.35
